Source listed as the OPERA property sets (Mansouri et al. 2018).

Where a SMILES comes first, the peptide text is derived from it.
Reported metric: logP
Numbers only.

A selection of reference data follows.
Molecule	Reported metric	Assay value
CCSSc1ncc[nH]1	logP	2.13
O=C1C=C(N2CCCCC2)C(=O)N1c1ccc(Cl)cc1	logP	3.4
CCCCCCC(=O)Oc1ccc2c3c1OC1C(OS(=O)(=O)O)C=CC4C(C2)N(C)CCC341 (stereo not given)	logP	0.36
COc1ccc(CCNCC(O)COc2ccc(-c3nc(C)c(Cl)[nH]3)cc2)cc1OC (stereo not given)	logP	3.9
COC(=O)C(C)=CC1C(C(=O)OCc2cccc(COc3ccccc3)c2)C1(C)C (stereo not given)	logP	6.06
CCC(C)C(N)C(=O)NC(C(=O)NCC(=O)NC(Cc1ccccc1)C(=O)O)C(C)CC (stereo not given) (H-IIGF-OH; configuration not given here)	logP	-0.99
CCNc1ncnc2c1ncn2C1OC(CO)C(O)C1O (stereo not given)	logP	0.01
CC(C)CNc1ccncc1S(=O)(=O)NC(=NC#N)NC(C)C	logP	0.88

Return reported logP values for all items listed beneath this line.
1. Clc1cccc(CNc2[nH]cnc3ncnc2-3)c1
2. CNc1ccc2cc3ccc4c(c3nc2c1CO)COCN4S(C)(=O)=O

1: 2.89; 2: 1.2
